# MEASUREMENT SETUP: Patient ID 131, CYP2D6 functional group EM/EM
RECORDED METRIC: plasma concentration (ng/mL)

[[record]]
compound = "CC/C(=C(\\c1ccccc1)c1ccc(OCCN(C)C)cc1)c1ccccc1"
unit_label = "ng/mL"
experimental_value = 85.66

[[record]]
compound = "CC(O)C(=C(c1ccccc1)c1ccc(OCCN(C)C)cc1)c1ccccc1 (racemic) [(E)-a-OH-Tam]"
unit_label = "ng/mL"
experimental_value = 0.176

[[record]]
compound = "CC/C(=C(\\c1ccccc1)c1ccc(OCCN(C)C)cc1)c1ccc(O)cc1"
unit_label = "ng/mL"
experimental_value = 3.03

[[record]]
compound = "CCC(=C(c1ccccc1)c1ccc(OCCNC)cc1)c1ccc(O)cc1"
unit_label = "ng/mL"
experimental_value = 4.974

[[record]]
compound = "CC/C(=C(/c1ccc(OCCNC)cc1)c1ccc(O[C@@H]2O[C@H](C(=O)O)[C@@H](O)[C@H](O)[C@H]2O)cc1)c1ccccc1"
unit_label = "ng/mL"
experimental_value = 0.225

[[record]]
compound = "CC/C(=C(\\c1ccc(O)cc1)c1ccc(OCCNC)cc1)c1ccccc1 [(Z)-Endoxifen 3-OH-NDM-Tam]"
unit_label = "ng/mL"
experimental_value = 4.47

[[record]]
compound = "CC(O)C(=C(c1ccccc1)c1ccc(OCCN(C)C)cc1)c1ccccc1 (racemic) [(Z)-a-OH-Tam]"
unit_label = "ng/mL"
experimental_value = 0.058

